Hi there, I'd appreciate the recorded IC50 for every entry that follows.
Tested on: HSV-1
Protocol Details: HSV Antiviral (ELISA) Assay
Type: cell-based, herpes simplex virus type 1
Condition: Human alphaherpesvirus 1, Vero cells, HSV-1, about 24 hours post-infection, read-out: IC50 (ug/ml) HSV
Method: Vero cells (ATCC #CCL-81) are plated on 96-well tissue culture plates at 3.5×10^4 cells per 100 μl tissue culture DMEM (Dulbecco's modified Eagle media) supplemented with 2% fetal bovine serum (FBS) in each well. After overnight incubation @37° C. […] Antiviral activity (IC50) of the test compound is determined by comparing the flourescence obtained in absence of compound to that obtained in the presence of compound.

                                   molecule  value_observed
0  O=C(Nc1ccc(NC(=S)NCc2cccnc2)cc1)c1ccco1 [Example 633]      > 10 µg/mL
1  O=C(Nc1ccc(NC(=S)NC2CCc3ccccc32)cc1)c1csnn1 (stereo not shown) [Example 649]      > 10 µg/mL
2  COc1ccccc1C(=O)Nc1ccc(NC(=S)NC(C)c2ccsc2)cc1 (stereo not shown) [Example 1101]      > 10 µg/mL
3  O=C(Nc1ccc(NC(=S)Nc2cncc(C(F)(F)F)c2)cc1)c1csnn1 [Example 629]      > 10 µg/mL

Below are some molecules; for each one, tell me its IC50.
1. O=C(Nc1ccc(NC(=S)Nc2ccncc2)cc1)c1ccco1 [Example 427]
2. CC(C)(C)n1ccnc1NC(=S)Nc1ccc(NC(=O)c2ccco2)cc1 [Example 609]
3. O=C(Nc1ccc(NC(=S)NCc2cccnc2)cc1)c1csnn1 [Example 634]
4. O=C(Nc1ccc(NC(=S)Nc2cncc(Br)c2)cc1)c1csnn1 [Example 525]

stdout:
> 10 µg/mL
8 µg/mL
> 10 µg/mL
2.5 µg/mL

Below are some molecules; for each one, tell me its IC50.
1. CC(NC(=S)Nc1ccc(NC(=O)c2ccccc2F)cc1)c1ccsc1 (stereo not shown) [Example 805]
2. CC(NC(=S)Nc1ccc(NC(=O)c2ccccc2F)cc1)c1ccc2ccccc2n1 (stereo not shown) [Example 1095]
3. CC(C)(C)n1ccnc1NC(=S)Nc1ccc(NC(=O)c2csnn2)cc1 [Example 608]
4. O=C(Nc1ccc(NC(=S)Nc2ccncn2)cc1)c1ccco1 [Example 480]
5. CC(NC(=S)Nc1ccc(NC(=O)c2ccccc2F)cc1)c1cc2ccccc2cn1 (stereo not shown) [Example 1097]
6. O=C(Nc1ccc(NC(=S)Nc2ccccn2)cc1)c1ccccc1F [Example 443]

stdout:
1: > 10 µg/mL; 2: > 10 µg/mL; 3: 9 µg/mL; 4: > 10 µg/mL; 5: > 10 µg/mL; 6: > 10 µg/mL

Below are some molecules; for each one, tell me its IC50.
1. CC(NC(=S)Nc1ccc(NC(=O)c2ccccc2F)cc1)c1ccncc1 (stereo not shown) [Example 803]
2. O=C(Nc1ccc(NC(=S)NCc2ccncc2)cc1)c1ccco1 [Example 659]
3. O=C(Nc1ccc(NC(=S)Nc2cccnc2)cc1)c1ccccc1F [Example 428]
4. CC(NC(=S)Nc1ccc(NC(=O)c2ccccc2F)cc1)c1cccn1C (stereo not shown) [Example 804]
5. O=C(Nc1ccc(NC(=S)Nc2ccc3[nH]ncc3c2)cc1)c1ccccc1F [Example 483]
6. O=C(Nc1ccc(NC(=S)NCc2ccncc2)cc1)c1csnn1 [Example 660]

stdout:
> 10 µg/mL
> 10 µg/mL
> 10 µg/mL
> 10 µg/mL
1.2 µg/mL
10 µg/mL
